- TEST: Activation of wild type BK calcium channel (unknown origin) expressed in CHO-K1 cells assessed as increase in channel open probability at +20 mV holding potential by whole cell patch-clamp technique
- Assay type: cell-based
ENDPOINT: pEC50
Answers are plain numbers, as −log10 of the molar value.

Lookup result for CCCCCCCCC/C=C\CC/C=C/[C@@H](O)[C@H](CO[C@@H]1O[C@H](CO)[C@@H](O)[C@H](O)[C@H]1O)NC(=O)[C@H](O)CCCCCCCCCCCCCCCCCCCC ; measured pEC50: 6.00

Reference source for all entries: ChEMBL document CHEMBL3120076
